METHOD_DESCRIPTION: NCI Yeast Anticancer Drug Screen. Data for the rad50 strain (AID 155);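 also: 0% = growth of vehicle-only cultures of the same strain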
APPLIED_CONDITIONS: S. cerevisiae rad50 strain growth inhibition; at 50.0 µM; hits give high values
About 79,000 compounds went through this panel and 15% of them were active in at least one assay; those are over-represented in the sample as a whole.
PROPERTY_MEASURED: growth inhibition (%)

[[record]]
molecule = "COc1ccc2c(c1)OCc1c-2oc2ccccc2c1=O"
property_measured = "growth inhibition"
assay_value = -24.8

[[record]]
molecule = "O=C(Nn1cnc2ccccc2c1=O)c1ccc(NC(=S)Nc2ccccc2)cc1"
property_measured = "growth inhibition"
assay_value = 63.5

[[record]]
molecule = "Fc1ccccc1-c1nc2ccccc2s1"
property_measured = "growth inhibition"
assay_value = 45

[[record]]
molecule = "CCOC(=O)C1C/C(C)=C(/C)SCCCS1 (stereo unspecified)"
property_measured = "growth inhibition"
assay_value = 18.8

[[record]]
molecule = "O=C1N=C(c2c[nH]c3ccccc23)C(=O)N1"
property_measured = "growth inhibition"
assay_value = -1.8

[[record]]
molecule = "CC(C)=CCC1=C(O)c2ccccc2C(=O)C1=O"
property_measured = "growth inhibition"
assay_value = 16.6

[[record]]
molecule = "O=C(/C=C/c1ccc2c(c1)OCO2)C1CC1"
property_measured = "growth inhibition"
assay_value = 6.45

[[record]]
molecule = "O=C(NO)/C(CC(=O)c1ccc(O)cc1O)=N\\O"
property_measured = "growth inhibition"
assay_value = 4.05

[[record]]
molecule = "COc1ccccc1-c1cc(=O)c2c(C)cc(C)nc2[nH]1"
property_measured = "growth inhibition"
assay_value = -15.8

[[record]]
molecule = "CCCCOc1ccc(Nc2c(C(=O)O)cnc3cc4c(cc23)OCO4)cc1"
property_measured = "growth inhibition"
assay_value = -11.1

[[record]]
molecule = "Cc1c(C)n(C)c(=S)n(C)c1=S"
property_measured = "growth inhibition"
assay_value = 4.95


* * *

METHOD_DESCRIPTION: NCI Yeast Anticancer Drug Screen. Data for the bub3 strain (AID 167)
APPLIED_CONDITIONS: S. cerevisiae bub3 mutant strain, at 50.0 µM, hits give high values
About 79,000 compounds went through this panel and 15% of them were active in at least one assay; those are over-represented in the sample as a whole.
Entries and their measured growth inhibition follow.
PROPERTY_MEASURED: growth inhibition (%)

[[record]]
compound = "Cc1ccccc1C(=O)OCC(=O)c1ccc(-c2ccccc2)cc1"
assay_value = 14

[[record]]
compound = "CC1Cc2cc(O)ccc2C2[C@@H]1C1CC[C@H](O)[C@@]1(C)C[C@@H]2O[N+](=O)[O-] (stereo partly drawn)"
assay_value = 60.9

[[record]]
compound = "CCC1(CN(C)C)CC/C(=C\\c2ccc(OC)c(OC)c2)C1=O (stereo not drawn)"
assay_value = 7.8

[[record]]
compound = "CC1=NNC(=O)CC1C(O)c1ccc(F)cc1 (stereo not drawn)"
assay_value = 0

[[record]]
compound = "CCOC(=O)NC(Nc1ccc([N+](=O)[O-])cc1)(C(F)(F)F)C(F)(F)F"
assay_value = 42

[[record]]
compound = "CCC1=C/C(=N/O)C(C)=CC1(C)C(Cl)(Cl)Cl (stereo not drawn)"
assay_value = 17.9

[[record]]
compound = "CS(=O)(=O)OC(OS(C)(=O)=O)(OS(C)(=O)=O)OS(C)(=O)=O"
assay_value = -2.4

[[record]]
compound = "CCOC(=O)C(C(=O)OCC)C(C(=O)OCC)C(=O)OCC"
assay_value = -14.5

[[record]]
compound = "O=C1c2ccccc2C(=O)N1Cc1ccc(CN2C(=O)c3ccccc3C2=O)cc1"
assay_value = -1.55

[[record]]
compound = "CCCCCCCCCCCCSSC(=S)OC(C)C"
assay_value = 43.6

[[record]]
compound = "CCOC(=O)C1=C(O)C(=O)c2ccoc2C1=O"
assay_value = -32.5

[[record]]
compound = "CC(CCC(=O)O)C1CCC2C3CCC4CCCCC4(C)C3CCC12C (stereo not drawn)"
assay_value = 51.2

[[record]]
compound = "COc1cc2c(NCCCCCCO[N+](=O)[O-])ncnc2c(OC)c1OC"
assay_value = 39


* * *

METHOD_DESCRIPTION: NCI Yeast Anticancer Drug Screen. Data for the cln2 rad14 strain (AID 165);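 also: 0% = growth equal to vehicle treated cultures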
APPLIED_CONDITIONS: S. cerevisiae cln2 rad14 strain, at 50.0 µM, hits give high values
The panel holds about 79,000 compounds, 15% with a hit somewhere; the sample as a whole holds those more often.
PROPERTY_MEASURED: growth inhibition (%)

[[record]]
compound = "Brc1cc(Br)c(Br)cc1Br"
property_measured = "growth inhibition"
assay_value = 13.8

[[record]]
compound = "CCCCN=C1NC(N)=NC(C)(C)N1"
property_measured = "growth inhibition"
assay_value = -37.5

[[record]]
compound = "O=C(O)c1ccccc1CC(Cc1ccc2c(c1)CCC2)C(=O)O (configuration not stated)"
property_measured = "growth inhibition"
assay_value = -5.15

[[record]]
compound = "COc1ccccc1CC(=O)C(O)(C(F)(F)F)C(F)(F)F"
property_measured = "growth inhibition"
assay_value = -28.6

[[record]]
compound = "Cc1sc2[nH]c(=O)oc(=O)c2c1C"
property_measured = "growth inhibition"
assay_value = 30.1

[[record]]
compound = "Nc1nc(N)c2nc(-c3ccc([N+](=O)[O-])cc3)c(Cl)nc2n1"
property_measured = "growth inhibition"
assay_value = -44.9

[[record]]
compound = "C/C(=N\\NC(=S)Nc1ccc([N+](=O)[O-])cc1S(=O)(=O)O)c1ccccn1"
property_measured = "growth inhibition"
assay_value = -2.35

[[record]]
compound = "CN(C)c1ccc(/C=C/c2ccnc3ccc(Cl)cc23)cc1"
property_measured = "growth inhibition"
assay_value = 5.85

[[record]]
compound = "COc1cccc(CN2CCCN(Cc3cccc(OC)c3O)C2c2ccccc2)c1O"
property_measured = "growth inhibition"
assay_value = -6.45

[[record]]
compound = "O=C1c2cc(Br)ccc2-c2ccc(Br)c3cccc1c23"
property_measured = "growth inhibition"
assay_value = 10.3

[[record]]
compound = "COC(=O)[C@H](Cc1ccccc1)NP(=O)(OCCC#N)OCC1OC(n2cc(C)c(=O)[nH]c2=O)CC1N=[N+]=[N-] (some centres not stated)"
property_measured = "growth inhibition"
assay_value = -20

[[record]]
compound = "CC(O)c1cccc(C(C)(C)O)c1Sc1c(C(C)(C)O)cccc1C(C)(C)O (configuration not stated)"
property_measured = "growth inhibition"
assay_value = -0.75

[[record]]
compound = "CCCCCCCCCCCCCCCCOc1ccc(OC)cc1C(=O)NNC(=S)SC"
property_measured = "growth inhibition"
assay_value = 8.55

[[record]]
compound = "OCN(CO)c1ccc2c(c1)Cc1cc(Cl)ccc1-2"
property_measured = "growth inhibition"
assay_value = 22.4

[[record]]
compound = "c1ccc(C2SCCCS2)cc1"
property_measured = "growth inhibition"
assay_value = 18.4

[[record]]
compound = "CC(C)=NNC(=S)NC12CC3CC(CC(C3)C1)C2"
property_measured = "growth inhibition"
assay_value = -8.7

[[record]]
compound = "CSc1nc(C)c(CCOC(C)=O)c(Cl)n1"
property_measured = "growth inhibition"
assay_value = -0.25


* * *

METHOD_DESCRIPTION: NCI Yeast Anticancer Drug Screen. Data for the mlh1 rad18 strain (AID 175)
APPLIED_CONDITIONS: S. cerevisiae mlh1 rad18 strain growth inhibition; at 50.0 µM; hits give high values
This is part of a sample that, as a whole, favours compounds with a hit. Of some 79,000 tested, about 15% had one in any assay.
PROPERTY_MEASURED: growth inhibition (%)

[[record]]
compound = "CCCCC1SCC(=O)N1c1nncs1 (stereo not drawn)"
assay_value = -3.2

[[record]]
compound = "Nc1nc(C2CCCCC2)cs1"
assay_value = 20.4

[[record]]
compound = "CC(=O)C1OC1c1ccccn1 (stereo not drawn)"
assay_value = 3.35

[[record]]
compound = "Cc1sc2[nH]c(=O)oc(=O)c2c1C"
assay_value = 55.8

[[record]]
compound = "O=[N+]([O-])C(=C(N1CCCCC1)N1CCCCC1)/C(Cl)=C(\\Cl)Br"
assay_value = -1.45

[[record]]
compound = "O=C([O-])[C+](C=Cc1cccc2ccccc12)C(=O)O"
assay_value = 31.3

[[record]]
compound = "CC1=C(O)/C(=C/C(C)CCC/C(C)=C/C=C/C(C)CCCc2ccoc2)OC1=O (stereo not drawn)"
assay_value = 3.1

[[record]]
compound = "COc1ccc(CC(N)C(=O)N2CCCCC2)cc1 (stereo not drawn)"
assay_value = 6.75


* * *

Entries and their measured growth inhibition follow.
METHOD_DESCRIPTION: NCI Yeast Anticancer Drug Screen. Data for the rad50 strain (AID 155);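 also: 0% = growth of vehicle-only cultures of the same strain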
APPLIED_CONDITIONS: S. cerevisiae rad50 strain growth inhibition; at 50.0 µM; hits give high values
The panel holds about 79,000 compounds, 15% with a hit somewhere; the sample as a whole holds those more often.
PROPERTY_MEASURED: growth inhibition (%)

[[record]]
compound = "CCOC1CN(C(=O)ON)N1C(=O)ON (configuration not stated)"
assay_value = 4.8

[[record]]
compound = "CCc1ccc(OC/C=C(\\C)CCC2OC2(C)CC)cc1 (configuration not stated)"
assay_value = -4.15

[[record]]
compound = "N#C/C(=C/NC(=S)Nc1ccc(S(N)(=O)=O)cc1)C(N)=O"
assay_value = -44.8

[[record]]
compound = "COc1cccc(Cc2cncc3c(O)c(OC)ccc23)c1O"
assay_value = 2.3

[[record]]
compound = "NS(=O)(=O)c1ccc(N=C2C(=O)Nc3ccccc32)cc1"
assay_value = 1.05

[[record]]
compound = "c1ccc(-c2nc(-c3ccccc3SSc3ccccc3-c3nc(-c4ccccc4)nn3-c3ccccc3)n(-c3ccccc3)n2)cc1"
assay_value = -14.5

[[record]]
compound = "Cc1nc[nH]c(=O)c1N"
assay_value = 0.55

[[record]]
compound = "CNC(=O)OCc1c(COC(=O)NC)c2n(c1C)CS(=O)(=O)C2"
assay_value = -6.15

[[record]]
compound = "O=C(Nc1ccccc1Cl)Oc1ccc(C(=O)c2ccccc2)cc1"
assay_value = -0.3

[[record]]
compound = "CC1(C)OC2OC(COC(=O)c3ccc([N+](=O)[O-])cc3)C3OC(C)(C)OC3C2O1 (configuration not stated)"
assay_value = -13.6

[[record]]
compound = "Cc1cccc(C)c1NC(=O)CCC(=O)NC(N)=NC#N"
assay_value = -33.1

[[record]]
compound = "N#CC(C#N)=CNc1ccccc1"
assay_value = 5.4

